These measurements were taken from patent US20020098189A1.

# SUBJECT OF TEST: T1, C-terminal truncated RSV F protein, secreted from recombinant baculovirus-infected cells (respiratory syncytial virus (strain not …, UniProt P03420 26-526))
# T1 construct: also called F antigen of RSV
# EXPERIMENT NOTES: SPR (BIAcore), F protein immobilized, Fab injected
koff listing for selected binders.
Answer with a number only, understood to be in s⁻¹.

Answer with reported koff of Reference clone (Fab fragment with the sequences of FIG. 2 and the CDRs of Table 1) (Fab, V domains shown, also called basic structure) VH: QVTLRESGPALVKPTQTLTLTCTFSGFSLSTSGMSVGWIRQPPGKALEWLADIWWDDKKDYNPSLKSRLTISKDTSKNQVVLKVTNMDPADTATYYCARSMITNWYFDVWGQGTTVTVSS VL: DIQMTQSPSTLSASVGDRVTITCSASSSVGYMHWYQQKPGKAPKLLIYDTSKLASGVPSRFSGSGSGTEFTLTISSLQPDDFATYYCFQGSGYPFTFGGGTKVEIK
0.00065

Report koff, nothing else, for this binder: Clone 7 (Fab) (Fab, V domains shown) VH: QVTLRESGPALVKPTQTLTLTCTFSGFSLSTAGMSVGWIRQPPGKALEWLADIWWDDKKDYNPSLKSRLTISKDTSKNQVVLKVTNMDPADTATYYCARDMITNFYFDVWGQGTTVTVSS VL: DIQMTQSPSTLSASVGDRVTITCSASSRVGYMHWYQQKPGKAPKLLIYDTFKLASGVPSRFSGSGSGTEFTLTISSLQPDDFATYYCFQGSGYPFTFGGGTKVEIK
0.000251

Return value of koff for input Clone 6 (Fab) (Fab, V domains shown) VH: QVTLRESGPALVKPTQTLTLTCTFSGFSLSTAGMSVGWIRQPPGKALEWLADIWWDDKKDYNPSLKSRLTISKDTSKNQVVLKVTNMDPADTATYYCARSMITNFYFDVWGQGTTVTVSS VL: DIQMTQSPSTLSASVGDRVTITCSASSSVGYMHWYQQKPGKAPKLLIYDTFKLASGVPSRFSGSGSGTEFTLTISSLQPDDFATYYCFQGSFYPFTFGGGTKVEIK , no commentary.
0.00032

Answer with the recorded koff of Clone 15 (Fab) (Fab, V domains shown) VH: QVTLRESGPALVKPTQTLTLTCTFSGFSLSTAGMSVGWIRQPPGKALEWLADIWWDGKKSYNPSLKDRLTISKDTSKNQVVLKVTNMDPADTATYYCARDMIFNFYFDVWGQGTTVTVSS VL: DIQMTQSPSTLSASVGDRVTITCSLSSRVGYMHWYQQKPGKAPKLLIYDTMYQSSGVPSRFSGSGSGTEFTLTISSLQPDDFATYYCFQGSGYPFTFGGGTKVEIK only.
0.00028

Given the binder Clone 4 (Fab) (Fab, V domains shown, also called H3-3F4) VH: QVTLRESGPALVKPTQTLTLTCTFSGFSLSTAGMSVGWIRQPPGKALEWLADIWWDDKKDYNPSLKSRLTISKDTSKNQVVLKVTNMDPADTATYYCARDMIFNWYFDVWGQGTTVTVSS VL: DIQMTQSPSTLSASVGDRVTITCSASSSVGYMHWYQQKPGKAPKLLIYDTRYLSSGVPSRFSGSGSGTEFTLTISSLQPDDFATYYCFQGSGYPFTFGGGTKVEIK , write its reported koff.
0.000462

// Input: Clone 3 (Fab) (Fab, V domains shown) VH: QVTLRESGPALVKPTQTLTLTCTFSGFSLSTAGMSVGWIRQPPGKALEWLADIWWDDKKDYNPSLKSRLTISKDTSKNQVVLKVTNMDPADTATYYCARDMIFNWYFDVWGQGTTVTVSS VL: DIQMTQSPSTLSASVGDRVTITCSASSSVGYMHWYQQKPGKAPKLLIYDTYKQTSGVPSRFSGSGSGTEFTLTISSLQPDDFATYYCFQGSGYPFTFGGGTKVEIK . Output its koff only.
0.000422
